Molecular target: UniProtKB P25099
Sequence (P25099 1-326): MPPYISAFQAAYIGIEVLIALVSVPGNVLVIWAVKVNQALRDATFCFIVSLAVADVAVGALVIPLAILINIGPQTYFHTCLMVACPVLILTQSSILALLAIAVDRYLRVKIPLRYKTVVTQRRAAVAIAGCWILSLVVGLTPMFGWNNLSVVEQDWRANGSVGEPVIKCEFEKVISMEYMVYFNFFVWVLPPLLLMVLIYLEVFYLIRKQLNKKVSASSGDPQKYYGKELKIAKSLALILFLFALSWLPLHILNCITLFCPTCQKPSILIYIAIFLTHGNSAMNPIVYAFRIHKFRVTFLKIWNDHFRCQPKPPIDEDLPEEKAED
Experiment: Peak bradycardia after bolus intravenous injection in conscious rats
Type: in vivo
Parameters: from tissue; host or cells: whole animal (conscious Sprague-Dawley rats)
Settings: rat, bolus intravenous injections, read-out: ED50
Measurement Type: ED50 (µmol/kg)

Compound Smiles: O=C(NC1CC1)[C@H]1O[C@@H](n2cnc3c(NC4CCCC4)ncnc32)[C@H](O)[C@@H]1O
ED50 / µmol/kg: 0.0093
//
Compound Smiles: CNC(=O)[C@H]1O[C@@H](n2cnc3c(NC4CCCC4)ncnc32)[C@H](O)[C@@H]1O
ED50 / µmol/kg: 0.0039

[P] CC(C)NC(=O)[C@H]1O[C@@H](n2cnc3c(NC4CCCC4)ncnc32)[C@H](O)[C@@H]1O
[Q] CCNC(=O)[C@H]1O[C@@H](n2cnc3c(NC(CC)CC)ncnc32)[C@H](O)[C@@H]1O
Field: entry with larger ED50 (options P / Q ). Answer by stating the label of the chosen item.
Q
(Q: 0.0079 µmol/kg, P: 0.0034 µmol/kg)

====

target: UniProt:P25099; assay: Negative inotropic response in electrically stimulated rat isolated left atria (isoproterenol-stimulated); conditions: plateau negative inotropic response, 1 Hz, isoproterenol 10^−8 M
pEC50: −log10 of the molar value.
Measurement Type: pEC50

Worked examples follow.
Molecule: O=C(NC1CC1)[C@H]1O[C@@H](n2cnc3c(NC4CCCC4)ncnc32)[C@H](O)[C@@H]1O [C]
Meas Value: 8.42
//
Molecule: CNC(=O)[C@H]1O[C@@H](n2cnc3c(NC4CCCC4)ncnc32)[C@H](O)[C@@H]1O [D]
Meas Value: 7.72
//
Molecule: O=C(NCCO)[C@H]1O[C@@H](n2cnc3c(NC4CCCC4)ncnc32)[C@H](O)[C@@H]1O [B]
Meas Value: 7.95
//
Molecule: CC(C)NC(=O)[C@H]1O[C@@H](n2cnc3c(NC4CCCC4)ncnc32)[C@H](O)[C@@H]1O [E]
Meas Value: 7.96
//
Molecule: O=C(NCCO)C1OC(n2cnc3c(NC4CC5CCC4C5)ncnc32)C(O)C1O (stereo not shown) [H]
Meas Value: 8.42
//
Molecule: CCCNC(=O)[C@H]1O[C@@H](n2cnc3c(NC4CCCC4)ncnc32)[C@H](O)[C@@H]1O [G]
Meas Value: 7.60

[1] CCNC(=O)[C@H]1O[C@@H](n2cnc3c(NC(CC)CC)ncnc32)[C@H](O)[C@@H]1O [I]
[2] CCC(CC)Nc1ncnc2c1ncn2[C@@H]1O[C@H](C(=O)NCCO)[C@@H](O)[C@H]1O [J]
Field: entry with larger pEC50 (options 1 / 2 ). Answer by stating the label of the chosen item.
1
(1: 8.10, 2: 7.66)

[P] CCNC(=O)[C@H]1O[C@@H](n2cnc3c(NC4CCCC4)ncnc32)[C@H](O)[C@@H]1O [Compound A]
[Q] CC(C)(C)NC(=O)[C@H]1O[C@@H](n2cnc3c(NC4CCCC4)ncnc32)[C@H](O)[C@@H]1O [F]
Decide: P or Q , by lowest recorded pEC50. Answer by stating the label of the chosen item.
Q
(Q: 7.14, P: 7.81)

Every entry's value here was drawn from patent US6784165B1.
